TARGET_OR_SYSTEM: fWW, fluorescently labelled H14 foldamer WW
EXPERIMENT_DESCRIPTION: fluorescence polarisation; direct FP: S100 protein diluted in 50 nM labeled foldamer, 20 mM HEPES pH 7.5, 150 mM NaCl, 1 mM CaCl2, 0.5 mM TCEP, 0.01% Tween20; quadratic fit (ProFit); detection threshold Kd 1 mM
ENDPOINT_LABEL: Kd

BINDER	Kd
S100A9 (natural protein) MTCKMSQLERNIETIINTFHQYSVKLGHPDTLNQGEFKELVRKDLQNFLKKENKNEKVIEHIMEDLDTNADKQLSFEEFIMLMARLTWASHEKMHEGDEGPGHHHKPGLGEGTP	> 1000 µM
S100A3 (natural protein) MARPLEQAVAAIVCTFQEYAGRCGDKYKLCQAELKELLQKELATWTPTEFRECDYNKFMSVLDTNKDCEVDFVEYVRSLACLCLYCHEYFKDCPSEPPCSQ	310 µM
S100A16 (natural protein) MSDCYTELEKAVIVLVENFYKYVSKYSLVKNKISKSSFREMLQKELNHMLSDTGNRKAADKLIQNLDANHDGRISFDEYWTLIGGITGPIAKLIHEQEQQSSS	> 1000 µM

With those in mind, consider the next binder.
// Kd lookup, key: S100G (natural protein) MSTKKSPEELKRIFEKYAAKEGDPDQLSKDELKLLIQAEFPSLLKGPNTLDDLFQELDKNGDGEVSFEEFQVLVKKISQ
> 1000 µM
